Each recorded value in this set is attributed to patent US20230242473A1.

target: TRβ (Homo sapiens, UniProt P10828); construct: expressed in transfected cells; host or cells: HEK293-derived reporter cell line; assay: Thyroid-hormone reporter-gene assay, TRβ (Gal4 hybrid, luciferase); type: cell-based; details: TRα vs TRβ reporter-gene assays
Sequence (P10828 217-461 limits assumed): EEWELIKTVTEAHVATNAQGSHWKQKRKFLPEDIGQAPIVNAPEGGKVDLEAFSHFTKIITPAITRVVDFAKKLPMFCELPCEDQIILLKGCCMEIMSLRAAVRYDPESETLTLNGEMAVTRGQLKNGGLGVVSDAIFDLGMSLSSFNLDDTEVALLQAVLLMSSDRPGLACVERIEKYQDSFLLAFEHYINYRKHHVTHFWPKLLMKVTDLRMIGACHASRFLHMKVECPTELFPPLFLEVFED
READOUT_NAME: T3-SI, selectivity index (SI) calculated as EC50 (TRα)/EC50 (TRβ)

CC(C)c1cc(Cc2cc(F)c(OCC(=O)O)c3c2CCC3)ccc1O = ++ (++3X<T3−SI≤30X)
Cc1cc(OCC(=O)O)c2c(c1Cc1ccc(O)c(C(C)C)c1F)CCC2 = ++ (++3X<T3−SI≤30X)
CC(C)c1c(O)ccc(Cc2ccc(OCC(=O)O)cc2Cl)c1F = ++ (++3X<T3−SI≤30X)
